The following molecules are listed with their measured pIC50 values.
Tested system: human PCSK9 (Homo sapiens, UniProt Q8NBP7)
Sequence (Q8NBP7 153-692): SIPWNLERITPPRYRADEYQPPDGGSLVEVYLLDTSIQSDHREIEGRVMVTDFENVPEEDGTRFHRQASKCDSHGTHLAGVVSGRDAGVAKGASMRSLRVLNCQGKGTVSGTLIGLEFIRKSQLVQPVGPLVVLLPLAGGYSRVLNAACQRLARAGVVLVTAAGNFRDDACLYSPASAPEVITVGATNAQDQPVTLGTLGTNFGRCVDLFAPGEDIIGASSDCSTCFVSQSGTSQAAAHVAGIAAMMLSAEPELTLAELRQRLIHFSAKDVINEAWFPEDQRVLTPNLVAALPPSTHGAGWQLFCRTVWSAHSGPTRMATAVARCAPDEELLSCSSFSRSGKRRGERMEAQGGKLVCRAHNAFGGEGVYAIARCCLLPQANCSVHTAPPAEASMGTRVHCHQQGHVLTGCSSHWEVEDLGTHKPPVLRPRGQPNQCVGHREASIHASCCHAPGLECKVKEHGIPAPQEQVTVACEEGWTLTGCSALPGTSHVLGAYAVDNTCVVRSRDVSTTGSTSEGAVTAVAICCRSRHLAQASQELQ
Sequence (Q8NBP7 31-152 partner limits assumed): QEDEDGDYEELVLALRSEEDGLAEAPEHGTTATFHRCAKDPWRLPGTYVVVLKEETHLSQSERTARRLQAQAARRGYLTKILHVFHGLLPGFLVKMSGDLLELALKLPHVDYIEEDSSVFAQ
Assay remarks: PCSK9 ligand binding TR-FRET assay (interference with binding of human PCSK9 to human LDLR)
Condition parameters: TR-FRET; human PCSK9 Alexa Fluor 647 / human LDLR extracellular domain-Europium Kryptate; read-out: PCSK9 FRET Assay IC50
Bear in mind: pIC50 is minus log10 of a mol/L concentration; give just that figure.

{"Molecule": "CCC/C=C/c1ncc(-c2ccc(Oc3cc(Cl)ccc3CN3C(=O)C[C@@H](Cc4ccccc4)C(=O)N(C)[C@@H](C)CNC(=O)C[C@H](Cc4ccc(Cl)cc4)N(C)C(=O)[C@H](COC)NC(=O)[C@@H]3C)cc2)n1C", "pIC50": 7.46}
{"Molecule": "COC[C@@H]1NC(=O)[C@H](C)N(Cc2ccc(Cl)cc2Oc2ccc(-c3cnc(OC(C)C)n3C)cc2)C(=O)C[C@@H](Cc2ccccc2)C(=O)N(C)[C@@H](C)CNC(=O)C[C@H](Cc2ccc(Cl)cc2)N(C)C1=O", "pIC50": 7.19}
{"Molecule": "CNC(=O)C[C@@H]1NC(=O)[C@H](C)N(Cc2ccc(Cl)cc2Oc2ccc(-c3cnc(CN(C)C)n3C)cc2)C(=O)C[C@@H](Cc2ccccc2)C(=O)N(C)[C@@H](C)CNC(=O)C[C@H](Cc2ccc(Cl)cc2)N(C)C1=O", "pIC50": 8.85}

Query (molecule): COC[C@@H]1NC(=O)[C@H](C)N(Cc2ccc(Cl)cc2Oc2ccc(-c3cnc(CN(C)C)n3C)cc2)C(=O)CC(Cn2ccccc2=O)C(=O)N(C)[C@H]2CCCC[C@@H]2NC(=O)C[C@H](Cc2ccc(Cl)cc2)N(C)C1=O (stereo partly shown) [Compound 275] ; field requested: pIC50
9.10

Report pIC50 for COC[C@@H]1NC(=O)[C@H](C)N(Cc2ccc(Cl)cc2Oc2ccc(-c3cnc(CN(C)C)n3C)cc2)C(=O)CC2(CC2)C(=O)N(C)[C@@H](C)CNC(=O)C[C@H](Cc2ccc(Cl)cc2)N(C)C1=O please.
6.36

Any idea what its pIC50 is? The molecule is COC[C@@H]1NC(=O)[C@H](CCCN2CCOCC2)N(Cc2ccc(Cl)cc2Oc2ccc(-c3cnc(CN4CCCC4)n3C)cc2)C(=O)C[C@@H](Cc2ccccc2)C(=O)N(C)[C@H]2CCCC[C@@H]2NC(=O)C[C@H](Cc2ccc(Cl)cc2)N(C)C1=O
8.68

Give the measured pIC50 of COC[C@@H]1NC(=O)[C@H](CC(=O)N2CCOCC2)N(Cc2ccc(Cl)cc2Oc2ccc(-c3cnc(CN(C)C)n3C)cc2)C(=O)C[C@@H](Cc2ccccc2)C(=O)N(C)[C@H]2CCCC[C@@H]2NC(=O)C[C@H](Cc2ccc(Cl)cc2)N(C)C1=O .
8.92

Which measured pIC50 value corresponds to COC[C@@H]1NC(=O)[C@H](C)N(Cc2c(C)cccc2Oc2ccc(-c3cnc(CN(C)C)n3C)cc2)C(=O)C[C@@H](Cc2ccccc2)C(=O)N(C)[C@@H](C)CNC(=O)C[C@H](Cc2ccc(Cl)cc2)N(C)C1=O ?
7.40

Tell me the measured pIC50 of COC[C@@H]1NC(=O)[C@H](C)N(Cc2ccc(Cl)cc2Oc2ccc(-c3cnc(CN(C)C)n3C)cc2)C(=O)CCC(=O)N(C)[C@H]2CCCC[C@@H]2NC(=O)C[C@H](Cc2ccc(Cl)cc2)N(C)C1=O , please.
8.54

Given CCc1ccc(CN2C(=O)C[C@@H](Cc3ccccc3)C(=O)N(C)[C@@H](C)CNC(=O)C[C@H](Cc3ccc(Cl)cc3)N(C)C(=O)[C@H](COC)NC(=O)[C@@H]2C)c(Oc2ccc(-c3cnc(CN4CCCC4)n3C)cc2)c1.Cl [Compound 150, hydrochloride] , state its recorded pIC50.
9.10

Give its pIC50 value. Item: CCC[C@@H](O)[C@@H]1CC(=O)N(Cc2ccc(Cl)cc2Oc2ccc(-c3cnc(CN(C)C)n3C)cc2)[C@@H](C)C(=O)N[C@@H](COC)C(=O)N(C)[C@@H](Cc2ccc(Cl)cc2)CC(=O)NC[C@H](C)N(C)C1=O
8.40
